Source of measurements: paper PMC11772769

B1: unnamed (parent)
chain 1: MHFSIPETESRSGDSGGSAYVAYNIHVNGVLHCRVRYSQLLGLHEQLRKEYGANVLPAFPPKKLFSLTPAEVEQRREQLEKYMQAVRQDPLLGSSETFNSFLRRAQQETQQVPTEEVSLEVLLSNGQKVLVNVLTSDQTEDVLEAVAAKLDLPDDLIGYFSLFLVREKEDGAFSFVRKLQEFELPYVSVTSLRSQEYKIVLRKSYWDSAYDDDVMENRVGLNLLYAQTVSDIERGWILVTKEQHRQLKSLQEKVSKKEFLRLAQTLRHYGYLRFDACVADFPEKDCPVVVSAGNSELSLQLRLPGQQLREGSFRVTRMRCWRVTSSVPLPSGSTSSPGRGRGEVRLELAFEYLMSKDRLQWVTITSPQAIMMSICLQSMVDELMVKKSGGSIRKMLRRRVGGTLRRSDSQQAVKSPPLLESPDATRESMVKLSSKLSAVSLRGIGSPSTDASASDVHGNFAFEGIGDEDL
chain 2: not shown

Variants of: B1
Experiment: fluorescence anisotropy
Settings: with partner chain of the complex shown; 5-FAM-labeled L2 14-mer peptide
For each of the variants below, state its pKd.
# pKd: negative log10 of molar concentration; output just the value

In: Tell me its pKd given chain 1 W321A as the entry.
Out: 4.12

In: Tell me measured pKd for chain 1 H457A please.
Out: 5.96
